- measured.on: Muscarinic acetylcholine receptor M1 and M3 (Homo sapiens) (UniProt P20309+P11229)
- Sequence (P11229 whole entry, looked up, one chain of several): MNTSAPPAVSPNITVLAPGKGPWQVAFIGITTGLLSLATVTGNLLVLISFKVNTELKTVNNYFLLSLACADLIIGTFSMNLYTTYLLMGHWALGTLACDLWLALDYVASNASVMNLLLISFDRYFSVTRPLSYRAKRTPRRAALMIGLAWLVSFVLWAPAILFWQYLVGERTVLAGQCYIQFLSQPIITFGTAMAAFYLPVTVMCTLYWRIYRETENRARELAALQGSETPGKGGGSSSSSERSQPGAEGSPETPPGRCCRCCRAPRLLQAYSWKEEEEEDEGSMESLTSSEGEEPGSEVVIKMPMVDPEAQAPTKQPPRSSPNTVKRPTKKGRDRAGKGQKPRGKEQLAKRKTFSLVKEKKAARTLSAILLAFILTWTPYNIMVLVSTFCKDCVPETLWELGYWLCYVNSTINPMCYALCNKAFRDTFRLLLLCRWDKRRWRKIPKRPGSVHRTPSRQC
- procedure.details: Selectivity ratio of IC50 for human muscarinic M1 receptor to IC50 for human muscarinic M3 receptor
Quick rule for you: Ratio IC50 at 0.7 or higher means label 1, lower means label 0.

Determine whether measured Ratio IC50 meets or exceeds 0.7 for CCCCN(Cc1cccs1)C(=O)O[C@H]1CN2CCC1CC2
label 0

Could you do the same for O=C(O[C@H]1CN2CCC1CC2)N(CCc1ccccc1)c1ccccc1 , please?
label 0

Please answer likewise for O=C(Nc1ccccc1-c1ccccc1)OC12CCN(CC1)CC2
label 0

And O=C(O[C@H]1C[N+]2(CCOc3ccccc3)CCC1CC2)N(Cc1ccccc1)c1ccccc1.[Br-] ?
label 1

And CCCCN(C(=O)O[C@H]1C[N+]2(CCc3ccccc3)CCC1CC2)c1ccccc1 ?
label 1

Same read-out for Cc1cccc(N(Cc2cc(F)c(F)cc2F)C(=O)O[C@H]2C[N+]3(CCCc4ccccc4)CCC2CC3)c1.[Br-] ?
label 1

Input CCCCN(C(=O)O[C@H]1C[N+]2(CCCc3ccccc3)CCC1CC2)c1ccccc1
label 1

Quick one: O=C(O[C@H]1C[N+]2(CCOc3ccccc3)CCC1CC2)N(Cc1cc(F)c(F)c(F)c1)c1cccc(F)c1.[Br-]
label 1

Same again, this time with CCCCN(C(=O)O[C@H]1C[N+]2(CCCc3cccs3)CCC1CC2)c1ccccc1.[Br-]
label 1

Same question, O=C(O[C@H]1C[N+]2(CCCc3cccs3)CCC1CC2)N(Cc1ccccc1)c1ccccc1.[Br-] this time
label 1

And for O=C(O[C@H]1CN2CCC1CC2)N(c1ccccc1)c1ccccc1 ?
label 0

Also, Cc1ccc(N(Cc2ccccc2)C(=O)O[C@H]2CN3CCC2CC3)cc1 please.
label 0

Please do the same for O=C(O[C@H]1CN2CCC1CC2)N(Cc1cccs1)Cc1cccs1 as well.
label 0

Let us now turn to O=C(O[C@H]1C[N+]2(CCOc3ccccc3)CCC1CC2)N(Cc1ccsc1)c1ccccc1.[Br-]
label 1

Try the compound Cc1cccc(N(Cc2cc(F)c(F)cc2F)C(=O)O[C@H]2C[N+]3(CCOc4ccccc4)CCC2CC3)c1.[Br-]
label 1

Another compound to check: O=C(O[C@H]1C[N+]2(CCCc3cccs3)CCC1CC2)N(Cc1cccs1)c1ccccc1.[Br-]
label 1

// query: O=C(O[C@H]1C[N+]2(CCCc3ccccc3)CCC1CC2)N(Cc1ccccc1)c1ccccc1.[Br-]
label 1

What about this compound? O=C(O[C@H]1C[N+]2(CCc3ccccc3)CCC1CC2)N(Cc1ccccc1)c1ccccc1.[Br-]
label 1

Try this compound too: C[N+]12CCC(CC1)[C@@H](OC(=O)N(Cc1cccs1)c1ccccc1)C2
label 0

Now give it for O=C(O[C@H]1CN2CCC1CC2)N(Cc1ccccc1)c1ccccc1 too.
label 0

Okay, and O=C(O[C@H]1CN2CCC1CC2)N(Cc1ccccc1)Cc1cccs1 ?
label 0

Lookup CCCCN(C(=O)O[C@H]1CN2CCC1CC2)c1ccccc1
label 0

Same question for O=C(O[C@H]1CN2CCC1CC2)N1CCc2ccccc2[C@@H]1c1ccccc1 [SOLIFENACIN SUCCINATE] please.
label 0

Consider next the compound CCCCCN(C(=O)O[C@H]1CN2CCC1CC2)c1ccccc1 in the same way.
label 0

Same lookup for O=C(O[C@H]1CN2CCC1CC2)N(Cc1cccc(F)c1)c1cccc(F)c1 , please.
label 0

Moving on to the next compound: O=C(O[C@H]1CN2CCC1CC2)N(Cc1ccsc1)c1ccccc1
label 0

What do we get for CCCN(C(=O)O[C@H]1CN2CCC1CC2)c1ccccc1 ?
label 0

Also need CC(C)N(C(=O)O[C@H]1CN2CCC1CC2)c1ccccc1 , thanks.
label 0

Likewise for O=C(O[C@H]1CN2CCC1CC2)N(Cc1cc(F)c(F)c(F)c1)c1cccc(F)c1 ?
label 0

* * *

- measured.on: Muscarinic acetylcholine receptor M2 (Homo sapiens, UniProt P08172)
- Sequence (P08172 whole entry): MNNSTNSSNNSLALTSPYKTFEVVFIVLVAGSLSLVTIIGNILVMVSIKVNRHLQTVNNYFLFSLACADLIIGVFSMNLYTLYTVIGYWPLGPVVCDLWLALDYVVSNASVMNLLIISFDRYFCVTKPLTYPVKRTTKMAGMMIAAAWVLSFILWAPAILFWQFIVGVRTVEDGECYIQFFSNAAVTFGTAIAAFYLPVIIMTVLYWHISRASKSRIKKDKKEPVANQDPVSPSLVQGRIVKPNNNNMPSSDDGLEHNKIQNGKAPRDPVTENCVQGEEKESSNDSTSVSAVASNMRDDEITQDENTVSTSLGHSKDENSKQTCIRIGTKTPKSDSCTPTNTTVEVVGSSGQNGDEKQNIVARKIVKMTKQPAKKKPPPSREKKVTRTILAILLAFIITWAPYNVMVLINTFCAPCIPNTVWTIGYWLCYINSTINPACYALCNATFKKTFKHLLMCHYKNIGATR
- procedure.details: Displacement of [3H]NMS from human muscarinic M2 receptor expressed in CHO-K1 cells after 1 hr by scintillation counting
reported.metric: IC50
Field note: include the unit after the figure.

Reported IC50 for CCCCCN(C(=O)O[C@H]1CN2CCC1CC2)c1ccccc1 : what is it?
0.0136 µM

Cool, now CCCCN(C(=O)O[C@H]1C[N+]2(CCOc3ccccc3)CCC1CC2)c1ccccc1.[Br-]
0.0089 µM

How about this molecule: O=C(O[C@H]1C[N+]2(CCOc3ccccc3)CCC1CC2)N(Cc1cc(F)c(F)c(F)c1)c1cccc(F)c1.[Br-]
0.0144 µM

Follow-up item: O=C(O[C@H]1C[N+]2(CCCc3cccs3)CCC1CC2)N(Cc1ccsc1)c1ccccc1.[Br-]
0.0084 µM

* * *

- measured.on: Muscarinic acetylcholine receptors; M2 & M3 (Homo sapiens) (UniProt P20309+P08172)
- procedure.details: Selectivity ratio of IC50 for human muscarinic M2 receptor to IC50 for human muscarinic M3 receptor
reported.metric: Ratio IC50
Please respond with just the number, no unit label.

I have this molecule here, O=C(O[C@H]1CN2CCC1CC2)N(Cc1cccs1)c1ccccc1 , and I need its recorded Ratio IC50.
3

Also need O=C(O[C@H]1CN2CCC1CC2)N(Cc1cccc(F)c1)c1cccc(F)c1 , thanks.
11.2

What do you get for CCCCN(C(=O)O[C@H]1C[N+]2(CCCc3cccs3)CCC1CC2)c1ccccc1.[Br-] ?
18.2

Note, next up: O=C(O[C@H]1C[N+]2(CCc3ccccc3)CCC1CC2)N(Cc1ccccc1)c1ccccc1.[Br-]
2.9

* * *

- measured.on: Muscarinic acetylcholine receptor M3 (Homo sapiens)
- Sequence (P20309 whole entry): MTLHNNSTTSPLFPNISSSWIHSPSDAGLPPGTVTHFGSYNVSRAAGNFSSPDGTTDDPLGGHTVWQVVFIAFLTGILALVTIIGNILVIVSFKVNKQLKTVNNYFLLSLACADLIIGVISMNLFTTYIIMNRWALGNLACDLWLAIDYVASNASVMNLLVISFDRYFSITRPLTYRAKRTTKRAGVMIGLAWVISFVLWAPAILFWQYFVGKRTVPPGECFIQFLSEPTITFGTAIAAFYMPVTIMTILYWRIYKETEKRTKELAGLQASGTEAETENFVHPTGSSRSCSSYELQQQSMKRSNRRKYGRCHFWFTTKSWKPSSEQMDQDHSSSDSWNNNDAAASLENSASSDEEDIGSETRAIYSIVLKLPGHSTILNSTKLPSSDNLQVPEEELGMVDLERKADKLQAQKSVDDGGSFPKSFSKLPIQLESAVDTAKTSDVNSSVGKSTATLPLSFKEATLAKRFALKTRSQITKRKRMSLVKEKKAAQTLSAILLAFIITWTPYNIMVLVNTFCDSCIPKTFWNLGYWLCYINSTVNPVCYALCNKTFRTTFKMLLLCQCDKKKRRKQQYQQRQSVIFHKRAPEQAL
- procedure.details: Displacement of [3H]NMS from human muscarinic M3 receptor expressed in CHO-K1 cells after 1 hr by scintillation counting
Labelling field: enter Met if recorded IC50 is less than 1 nM. Enter Not met if it equals or exceeds that cut-off.

Is 1 nM strictly greater than the compound's reported IC50? compound: O=C(O[C@H]1CN2CCC1CC2)N(Cc1cccc(F)c1)c1cccc(F)c1
Not met

Also need CCCCN(C(=O)O[C@H]1CN2CCC1CC2)c1ccccc1 , thanks.
Not met

What about O=C(O[C@H]1C[N+]2(CCCc3cccs3)CCC1CC2)N(Cc1ccccc1)c1ccccc1.[Br-] ?
Met

Would you mind doing O=C(O[C@H]1CN2CCC1CC2)N(Cc1cccs1)Cc1cccs1 as well?
Not met

And then O=C(O[C@H]1C[N+]2(CCCc3cccs3)CCC1CC2)N(Cc1cccs1)c1ccccc1.[Br-] , what is it?
Met

Record: Cc1cccc(N(Cc2cc(F)c(F)cc2F)C(=O)O[C@H]2C[N+]3(CCOc4ccccc4)CCC2CC3)c1.[Br-]
Not met

How about O=C(O[C@H]1C[N+]2(CCCc3cccs3)CCC1CC2)N(Cc1ccsc1)c1ccccc1.[Br-] ?
Met

What do you get for O=C(O[C@H]1C[N+]2(CCc3ccccc3)CCC1CC2)N(Cc1ccccc1)c1ccccc1.[Br-] ?
Not met

Try this compound too: O=C(O[C@H]1C[N+]2(CCOc3ccccc3)CCC1CC2)N(Cc1cc(F)c(F)c(F)c1)c1cccc(F)c1.[Br-]
Met

Field entry: O=C(O[C@H]1CN2CCC1CC2)N(Cc1ccccc1)c1ccccc1
Not met

Queued: Cc1ccc(N(Cc2ccccc2)C(=O)O[C@H]2CN3CCC2CC3)cc1
Not met

And CCCCN(C(=O)O[C@H]1C[N+]2(CCCc3cccs3)CCC1CC2)c1ccccc1.[Br-] ?
Met

Please answer likewise for CCCCCN(C(=O)O[C@H]1CN2CCC1CC2)c1ccccc1
Not met

Ok, now CCCCN(C(=O)O[C@H]1C[N+]2(CCOc3ccccc3)CCC1CC2)c1ccccc1.[Br-]
Met

What do you get for CCCCN(C(=O)O[C@H]1C[N+]2(CCCc3ccccc3)CCC1CC2)c1ccccc1 ?
Met

What do we get for O=C(O[C@H]1CN2CCC1CC2)N1CCc2ccccc2[C@@H]1c1ccccc1 [SOLIFENACIN SUCCINATE] ?
Not met

Entry CCCCN(C(=O)O[C@H]1C[N+]2(CCc3ccccc3)CCC1CC2)c1ccccc1 please
Not met

Also check Cc1cccc(N(Cc2cc(F)c(F)cc2F)C(=O)O[C@H]2CN3CCC2CC3)c1
Not met

Same question for CCCN(C(=O)O[C@H]1CN2CCC1CC2)c1ccccc1 please.
Not met

Next record, please: O=C(O[C@H]1C[N+]2(CCOc3ccccc3)CCC1CC2)N(Cc1ccsc1)c1ccccc1.[Br-]
Met

Now try O=C(O[C@H]1C[N+]2(CCCc3ccccc3)CCC1CC2)N(Cc1ccccc1)c1ccccc1.[Br-] .
Met

Continue with O=C(O[C@H]1CN2CCC1CC2)N(CCc1ccccc1)c1ccccc1
Not met

Entry O=C(O[C@H]1CN2CCC1CC2)N(Cc1cccs1)c1ccccc1 please
Met

# iterate: Cc1cccc(N(Cc2cc(F)c(F)cc2F)C(=O)O[C@H]2C[N+]3(CCCc4ccccc4)CCC2CC3)c1.[Br-]
Met

// next record C[N+]12CCC(CC1)[C@@H](OC(=O)N(Cc1cccs1)c1ccccc1)C2
Not met

# iterate: CC(C)N(C(=O)O[C@H]1CN2CCC1CC2)c1ccccc1
Not met

Similarly, CCCCN(Cc1cccs1)C(=O)O[C@H]1CN2CCC1CC2 ?
Not met

Next up: O=C(Nc1ccccc1-c1ccccc1)OC12CCN(CC1)CC2
Not met

And O=C(O[C@H]1CN2CCC1CC2)N(Cc1cc(F)c(F)c(F)c1)c1cccc(F)c1 [TARAFENACIN] ?
Not met

The origin of these recorded values is ChEMBL document CHEMBL1777779.
